Listing of entries alongside the reported growth.
# Test system: SK-OV-3 ovarian
# assay.procedure: NCI-60 one-dose screen, 48 h (100 = growth as untreated, 0 = no growth, -100 = all killed)
# conditions.used: 10 µM unless noted
About 83,000 compounds went through this panel and 20% of them were active in at least one assay; those are over-represented in the sample as a whole. The source made the active and inactive calls. The calls were made as follows: active = growth percent below 10; inactive = the rest.

Below are worked cases with known answers.
* Cn1nc(CC#N)c2c(=N)n(N)cnc21 | 99.8% (inactive)
* O=C(CCN1CCCC1)Nc1ccc2c(NCCc3ccccc3)c3ccccc3nc2c1 | -6.92% (active)
* COc1ccc(C(=O)Nc2cccc(C3CCc4c(cc(OC)c(OC)c4OC)O3)c2)cc1 (stereo unspecified) | 51.6% (inactive)
* O=C1Nc2cc(-c3ccc(NS(=O)(=O)c4ccccc4)cc3)ccc2/C1=C/c1ccc[nH]1 | 79.1% (inactive)
* O=C(NO)c1ccc(-n2nc(-c3ccccc3)c3ccccc32)cc1 | 58.7% (inactive)

Record O=C1C=CC(=O)N1c1cccc(Cl)c1 , field growth: 108% (inactive)

###

# Test system: MOLT-4 leukemia
# assay.procedure: NCI-60 one-dose screen, 48 h (100 = growth as untreated, 0 = no growth, -100 = all killed)
# conditions.used: 10 µM unless noted
About 83,000 compounds went through this panel and 20% of them were active in at least one assay; those are over-represented in the sample as a whole.
Listing of entries alongside the reported growth.
Value expressed in %; do not type the unit.

• COc1cccc2c1c1nc3cc(C)c(C)cc3nc1n2CCN(C)C = 10.5
• COc1cc2oc(-c3cccc(C(=O)Nc4ccccc4)c3)cc(=O)c2c(O)c1OC = 99.7
• O=S(=O)(NCCNc1nccc(-c2c(-c3cccc(O)c3)nc3occn23)n1)c1cccc(F)c1 = 93

Record O=C(c1ccccc1)N1N=C(c2ccc(-n3ccc(C(F)(F)F)n3)c(F)c2)CC1c1ccc[nH]1 (stereo not given) , field growth: 98.8

###

# Test system: HS 578T breast
# assay.procedure: NCI-60 one-dose screen, 48 h
# conditions.used: 10 µM unless noted
About 83,000 compounds went through this panel and 20% of them were active in at least one assay; those are over-represented in the sample as a whole. Active and inactive are the calls of the source. Rule for the calls: active = growth percent below 10; inactive = the rest.
Assign a class; possible classes are active, inactive

Some entries whose results are on file:
• C=C(C)[C@@H]1CC[C@]2(C(=O)N[C@@H](Cc3ccccc3)C(=O)OC)CC[C@]3(C)[C@H](CC[C@@H]4[C@@]5(C)CCC(=O)C(C)(C)[C@@H]5CC[C@]43C)[C@@H]12 = inactive
• CCOC(=O)CC1CSC(N/N=C/c2ccc(-n3cccn3)cc2)=N1 (centres undefined) = inactive
• O=[N+]([O-])c1cc(Br)c2cccc3c2c1CC3 = inactive
• C=C1C(=O)O[C@H]2[C@H]1CC/C(CNC(=O)/C=C/c1cccc(OC)c1)=C\CC[C@@]1(C)O[C@@H]21 = inactive

Ask: Hi team, can someone confirm the assay call for Cc1ccc(S(=O)(=O)Nn2c3c(cc(-c4nc5ccccc5s4)c2=O)CCCCCC3)cc1 ?
Result: inactive

Ask: Hi team, can someone confirm the assay call for Cc1nc2sccn2c1-c1cn2ccsc2n1 ?
Result: inactive

Ask: Hi team, can someone confirm the assay call for Cn1cc(-c2nc(-c3c[nH]c4c(Cl)nccc34)cs2)c2cc(Br)ccc21 ?
Result: inactive

Ask: Hi team, can someone confirm the assay call for COc1ccccc1NS(=O)(=O)c1cccc(C(=O)Nc2ccc(Br)cc2)c1 ?
Result: inactive

Ask: Hi team, can someone confirm the assay call for N#CC(C(=O)/C(=N/NC(=O)c1ccccc1O)C(C#N)c1ccccc1)c1ccccc1 (centres undefined) ?
Result: inactive

Ask: Hi team, can someone confirm the assay call for O=C(NO)c1ccc(-n2nc(-c3ccccc3)c3ccccc32)cc1 ?
Result: inactive

Ask: Hi team, can someone confirm the assay call for COc1ccccc1NC(=O)C1CC(c2ccc(F)cc2)=NO1 (centres undefined) ?
Result: inactive

Ask: Hi team, can someone confirm the assay call for C#CCNC(=O)c1cccc2c1cc(C)n2-c1nc2c(c(NCc3ccccc3)n1)CCCC2 ?
Result: active

Ask: Hi team, can someone confirm the assay call for OC(c1ccc(F)c(C(F)(F)F)c1)c1cnccc1NC1CCCCC1 (centres undefined) ?
Result: inactive
